The origin of these recorded values is patent US20220340875A1.

target-desc: hAhR (Homo sapiens)
Construct: Stably integrated DRE-luciferase cell lines were generated by transducing the both cell lines with Cignal XRE luciferase reporter (Qiagen) lentiviral particles; endogenous in cells
Sequence (P35869 11-848): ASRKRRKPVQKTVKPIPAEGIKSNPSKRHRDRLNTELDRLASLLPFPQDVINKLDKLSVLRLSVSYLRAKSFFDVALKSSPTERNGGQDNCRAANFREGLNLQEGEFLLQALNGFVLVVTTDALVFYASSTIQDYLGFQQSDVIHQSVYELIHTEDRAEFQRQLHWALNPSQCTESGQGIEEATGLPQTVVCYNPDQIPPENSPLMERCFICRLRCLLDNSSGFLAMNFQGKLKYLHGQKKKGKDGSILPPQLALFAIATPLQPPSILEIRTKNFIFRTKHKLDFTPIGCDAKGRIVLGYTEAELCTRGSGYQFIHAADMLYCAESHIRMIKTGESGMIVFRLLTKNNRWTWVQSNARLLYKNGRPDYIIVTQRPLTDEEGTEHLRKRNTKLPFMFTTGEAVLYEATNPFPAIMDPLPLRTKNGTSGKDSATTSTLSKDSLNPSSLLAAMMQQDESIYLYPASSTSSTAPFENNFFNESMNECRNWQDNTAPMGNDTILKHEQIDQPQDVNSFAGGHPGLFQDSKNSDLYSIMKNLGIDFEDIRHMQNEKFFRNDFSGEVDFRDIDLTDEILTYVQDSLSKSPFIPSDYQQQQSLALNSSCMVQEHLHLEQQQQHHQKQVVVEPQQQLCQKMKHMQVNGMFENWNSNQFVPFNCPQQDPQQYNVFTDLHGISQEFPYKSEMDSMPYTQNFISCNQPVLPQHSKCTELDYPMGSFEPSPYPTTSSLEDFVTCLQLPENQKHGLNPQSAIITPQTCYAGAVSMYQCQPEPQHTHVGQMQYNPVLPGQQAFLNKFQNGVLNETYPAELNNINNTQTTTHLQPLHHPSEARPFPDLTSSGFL
assay-name: AhR DRE-luciferase reporter transcriptional assay, antagonist mode (TCDD-induced)
condition-context: HEPG2 DRE-Luc cells, 3 nM TCDD, 24 hour incubation, relative IC50
pIC50: −log10 of the molar value.
result-type: pIC50

Example entries and their recorded answers appear below.
> print(dat)
                           molecular.string  result.type        result
1  Cc1cc(-c2ncc3nc(C(F)(F)F)cc(C)c3n2)ccc1NC(=O)c1ccnn1CC(N)=O        pIC50        > 6.70
2  [2H]C([2H])([2H])N(C(=O)c1ccnn1C)c1ccc(-c2ccc3cc(C(F)(F)F)ccc3n2)cc1C        pIC50        > 6.70
3  Cc1cc(-c2ccc3cc(F)ccc3n2)ccc1NC(=O)c1cccnn1        pIC50  6.00 to 6.30

Let us move to another entry and its pIC50.
Documented pIC50 of Cc1cc(-c2ncc3cc(C(F)(F)F)ccc3n2)ccc1N(C)C(=O)c1ncn[nH]1 : 6.30 to 6.70
